tested on: human maximum recommended daily dose, FDA database; experiment: DSSTox (FDAMDD) FDA Maximum (Recommended) Daily Dose Database; settings: TherapeuticCategory: antiviral; hits give low values
measured parameter: maximum recommended daily dose (mmol/kg-bw/day)

Nc1nc2c(ncn2COCCO)c(=O)[nH]1 = 0.0591
CC(C)(C)NC(=O)[C@@H]1CN(Cc2cccnc2)CCN1C[C@@H](O)C[C@@H](Cc1ccccc1)C(=O)N[C@H]1c2ccccc2C[C@H]1O = 0.0264
CC(=O)OCC(CCn1cnc2cnc(N)nc21)COC(C)=O = 0.0778
Nc1ccn([C@H]2CC[C@@H](CO)O2)c(=O)n1 = 0.000178
